- Tested on: 786-0
- Assay protocol: NCI tumour cell line growth inhibition, 48 h
Calls of active or inactive are those of the source. Rule as the data show it: active = GI50 up to about 1.1 µM and inactive = higher. Non-standard residues stand in square brackets, D forms with d. Residues, ends and D or L forms follow the SMILES beside them. *: point of attachment. Bn2Val = CC(C)[C@@H](C(=O)*)N(Cc1ccccc1)Cc1ccccc1; NH(4-Cl-benzyl) = Clc1ccc(CN*)cc1; NMeV = CN[C@H](C(=O)O)C(C)C; dNMeA = CN[C@H](C)C(=O)O
Measurement type: GI50

Answered cases to consult:
COc1ccccc1Nc1nc(N)nc(N)c1N	33.4 µM (inactive)
COC(=O)C(C(=O)C(N)=O)c1csc(-n2nc(-c3ccccc3)cc2-c2ccccc2)n1 (stereo not given)	> 31.6 µM (inactive)
NC(=O)SCC(=O)Nc1ccc2cccc3c2c1CC3	18.9 µM (inactive)
COc1ccc2ccccc2c1C1=NC(C)(C)CO1	> 100 µM (inactive)
O=C(c1ccc(Cl)cc1Cl)C1[C@H]2C(=O)N(c3ccc(Cc4ccc(N5C(=O)[C@@H]6ON(c7ccccc7)C(C(=O)c7ccc(Cl)cc7Cl)[C@@H]6C5=O)cc4)cc3)C(=O)[C@H]2ON1c1ccccc1 (stereo not given in full)	> 50 µM (inactive)

State recorded GI50 for all listed compounds.
1. COc1ccc2nc3cc(Cl)ccc3c(Sc3ccc(NC(C)=O)cc3)c2c1
2. CN(C)CCCSc1nc2c(c(=N)n1-c1ccccc1)c(=S)n(-c1ccccc1)c(=S)n2-c1ccccc1
3. CC(C)[C@H](NC(=O)[C@H](C(C)C)N(Cc1ccccc1)Cc1ccccc1)C(=O)N(C)[C@H](C(=O)N1CCC[C@H]1C(=O)N(C)[C@H](C)C(=O)NCc1ccc(Cl)cc1)C(C)C (Bn2Val-V[NMeV]P[dNMeA]-{NH(4-Cl-benzyl)})
4. COC(=O)C1=C(C)C(=O)[C@]23C(CCCC[C@H]12)C(=O)[C@H](C(=O)OC)C3C (stereo not given in full)

1: 8.15 µM (inactive); 2: 1.27 µM (inactive); 3: 3.26 µM (inactive); 4: > 100 µM (inactive)

###

- Test system: HCT-116
- Assay protocol: NCI tumour cell line growth inhibition, 48 h
Active and inactive are the calls of the source. Rule as the data show it: active = GI50 up to about 1.1 µM and inactive = higher.
Answer with one of the outcomes given here: label 1 for active, label 0 for inactive

Consider the worked cases shown below.
CC(=N)OC1CC2CCC1(C)C2(C)C (stereo not given)	label 0
Cc1nn(C(=O)c2ccc(Cl)cc2)c2c1C(/C=C/c1ccccc1)SC(=N)N2 (stereo not given)	label 0
CC1CCc2sc3nc(S)n(-c4ccccc4)c(=O)c3c2C1 (stereo not given)	label 0
CCC(C)C(=O)OC1C(=O)OC2CC3C(C)=CC(=O)C(O)C3(C)C3C4(O)OCC23C1C(C)C4O (stereo not given)	label 1

Next item in the queue.
Can you look up the reported call for CC(=O)NC(C=O)C(O[C@H](C)C(=O)NC(C)C(=O)NC(CCC(N)=O)C(=O)OCc1ccccc1)C(O)C(O)COC(=O)CCNc1c2ccccc2nc2cccc([N+](=O)[O-])c12 (stereo not given in full) for me?
label 0

###

- System: HOP-92
- Assay protocol: NCI tumour cell line growth inhibition, 48 h
Calls of active or inactive are those of the source. No stated cut-off is given here; in the data, active = GI50 up to about 1.1 µM and inactive = higher.
Return exactly one item of Yes = active, No = inactive

Worked examples, 3 compounds total:
CCOc1ccccc1NC(=O)C(=O)CC(=O)c1c(C)[n+]([O-])c2ccccc2[n+]1[O-]	No
CC1=C(C(=O)OC2CC3CCC2(C)C3(C)C)C2Nc3ccccc3N(C)C2O1 (centres undefined)	No
CCOC(=O)Nc1cc2c(c(N)n1)N=C(c1ccc(OC)cc1)CN2	Yes

Just curious, what result did `COc1ccc(/N=N/c2ccc3oc(=O)c(C(=O)Nc4ccccc4C)cc3c2)cc1` get here?
No
